Reported bioavailability values for the following molecules.
Assay: Oral bioavailability in Sprague-Dawley rat at 1 mg/kg
Format: ADME, organism-based
Details: in vivo
attributeMeasured: bioavailability (%)

| recordSmiles | readoutNumber |
| --- | --- |
| Cc1c([C@@H]2CN3CCN(C(=O)Cc4ccc(-n5cnnn5)nc4)C[C@H]3CO2)ccc2c1COC2=O | 82 |
| Cc1c(C#N)cccc1[C@@H]1CN2CCN(C(=O)Cc3ccc(-n4cnnn4)nc3)C[C@@H]2CO1 | 67 |
| Cc1c([C@@H]2CN3CCN(C(=O)Cc4ccc(-n5cnnn5)nc4)C[C@H]3CO2)ccc(F)c1C#N | 57 |
| Cc1c([C@@H]2CN3CCN(C(=O)Cc4cnc(-n5cnnn5)cn4)C[C@H]3CO2)ccc(F)c1C#N | 100 |

###

Examples of molecules with documented IC50 follow.
Biological target: UniProt:Q12809
Assay: Inhibition of human ERG by electrophysiology method

| recordSmiles | assayTarget | qualifier | IC50 [µM] |
| --- | --- | --- | --- |
| Cc1c([C@@H]2CN3CCN(C(=O)Cc4ccc(-n5cnnn5)nc4)C[C@@H]3CO2)ccc(F)c1C#N | UniProt:Q12809 | > | 10 |
| Cc1c([C@H]2CN3CCN(C(=O)Cc4ccc(-n5cnnn5)nc4)C[C@H]3CO2)ccc2nonc12 | UniProt:Q12809 | = | 10 |
| Cc1c([C@@H]2CN3CCN(C(=O)Cc4ccc(-n5cnnn5)nc4)C[C@H]3CO2)ccc2nonc12 | UniProt:Q12809 | > | 10 |
| Cc1c([C@@H]2CN3CCN(C(=O)Cc4ccc(-n5cnnn5)cn4)C[C@H]3CO2)ccc(F)c1C#N | UniProt:Q12809 | = | 20.3 |
| Cc1c([C@@H]2CN3CCN(C(=O)Cc4ccc(-n5cnnn5)nc4)C[C@H]3CO2)ccc(F)c1C#N | UniProt:Q12809 | = | 10 |
| Cc1c(C#N)cccc1[C@H]1CN2CCN(C(=O)Cc3ccc(-n4cnnn4)nc3)C[C@H]2CO1 | UniProt:Q12809 | = | 17.6 |
| Cc1c([C@H]2CN3CCN(C(=O)Cc4ccc(-n5cnnn5)nc4)C[C@H]3CO2)ccc2c1COC2=O | UniProt:Q12809 | = | 56.5 |
| O=C1OCCc2cc([C@@H]3CN4CCN(C(=O)Cc5cnc(-n6cnnn6)nc5)C[C@H]4CO3)ccc21 | UniProt:Q12809 | > | 90 |
| Cc1c([C@@H]2CN3CCN(C(=O)Cc4ccc(-n5cnnn5)nc4)C[C@@H]3CO2)ccc2c1COC2=O | UniProt:Q12809 | = | 74.9 |
| Cc1c([C@@H]2CN3CCN(C(=O)Cc4ccc(-n5cnnn5)nc4)C[C@H]3CO2)ccc2c1COC2=O | UniProt:Q12809 | = | 19.7 |
| O=C1OCCc2cc([C@@H]3CN4CCN(C(=O)Cc5ccc(-n6cnnn6)cc5)C[C@H]4CO3)ccc21 | UniProt:Q12809 | > | 30 |
| Cc1c([C@H]2CN3CCN(C(=O)Cc4cnc(-n5cnnn5)cn4)C[C@H]3CO2)ccc(F)c1C#N | UniProt:Q12809 | = | 12.3 |
| Cc1c([C@H]2CN3CCN(C(=O)Cc4ccc(-n5cnnn5)nc4)C[C@H]3CO2)ccc(F)c1C#N | UniProt:Q12809 | = | 12.5 |
| Cc1c(C#N)cccc1[C@@H]1CN2CCN(C(=O)Cc3ccc(-n4cnnn4)nc3)C[C@@H]2CO1 | UniProt:Q12809 | = | 14.8 |
| Cc1c([C@H]2CN3CCN(C(=O)Cc4ccc(-n5cnnn5)cn4)C[C@H]3CO2)ccc(F)c1C#N | UniProt:Q12809 | = | 19.9 |
| Cc1c([C@@H]2CN3CCN(C(=O)Cc4cnc(-n5cnnn5)cn4)C[C@H]3CO2)ccc(F)c1C#N | UniProt:Q12809 | = | 10 |

###

Experiment: Unbound fraction in human plasma
Assay type: ADME, cell-free

| recordSmiles | fraction unbound |
| --- | --- |
| Cc1c([C@@H]2CN3CCN(C(=O)Cc4ccc(-n5cnnn5)cn4)C[C@H]3CO2)ccc(F)c1C#N | 0.58 |

###

Target: Voltage-dependent L-type calcium channel subunit alpha-1C (Homo sapiens, UniProt Q13936)
Sequence (Q13936 whole entry): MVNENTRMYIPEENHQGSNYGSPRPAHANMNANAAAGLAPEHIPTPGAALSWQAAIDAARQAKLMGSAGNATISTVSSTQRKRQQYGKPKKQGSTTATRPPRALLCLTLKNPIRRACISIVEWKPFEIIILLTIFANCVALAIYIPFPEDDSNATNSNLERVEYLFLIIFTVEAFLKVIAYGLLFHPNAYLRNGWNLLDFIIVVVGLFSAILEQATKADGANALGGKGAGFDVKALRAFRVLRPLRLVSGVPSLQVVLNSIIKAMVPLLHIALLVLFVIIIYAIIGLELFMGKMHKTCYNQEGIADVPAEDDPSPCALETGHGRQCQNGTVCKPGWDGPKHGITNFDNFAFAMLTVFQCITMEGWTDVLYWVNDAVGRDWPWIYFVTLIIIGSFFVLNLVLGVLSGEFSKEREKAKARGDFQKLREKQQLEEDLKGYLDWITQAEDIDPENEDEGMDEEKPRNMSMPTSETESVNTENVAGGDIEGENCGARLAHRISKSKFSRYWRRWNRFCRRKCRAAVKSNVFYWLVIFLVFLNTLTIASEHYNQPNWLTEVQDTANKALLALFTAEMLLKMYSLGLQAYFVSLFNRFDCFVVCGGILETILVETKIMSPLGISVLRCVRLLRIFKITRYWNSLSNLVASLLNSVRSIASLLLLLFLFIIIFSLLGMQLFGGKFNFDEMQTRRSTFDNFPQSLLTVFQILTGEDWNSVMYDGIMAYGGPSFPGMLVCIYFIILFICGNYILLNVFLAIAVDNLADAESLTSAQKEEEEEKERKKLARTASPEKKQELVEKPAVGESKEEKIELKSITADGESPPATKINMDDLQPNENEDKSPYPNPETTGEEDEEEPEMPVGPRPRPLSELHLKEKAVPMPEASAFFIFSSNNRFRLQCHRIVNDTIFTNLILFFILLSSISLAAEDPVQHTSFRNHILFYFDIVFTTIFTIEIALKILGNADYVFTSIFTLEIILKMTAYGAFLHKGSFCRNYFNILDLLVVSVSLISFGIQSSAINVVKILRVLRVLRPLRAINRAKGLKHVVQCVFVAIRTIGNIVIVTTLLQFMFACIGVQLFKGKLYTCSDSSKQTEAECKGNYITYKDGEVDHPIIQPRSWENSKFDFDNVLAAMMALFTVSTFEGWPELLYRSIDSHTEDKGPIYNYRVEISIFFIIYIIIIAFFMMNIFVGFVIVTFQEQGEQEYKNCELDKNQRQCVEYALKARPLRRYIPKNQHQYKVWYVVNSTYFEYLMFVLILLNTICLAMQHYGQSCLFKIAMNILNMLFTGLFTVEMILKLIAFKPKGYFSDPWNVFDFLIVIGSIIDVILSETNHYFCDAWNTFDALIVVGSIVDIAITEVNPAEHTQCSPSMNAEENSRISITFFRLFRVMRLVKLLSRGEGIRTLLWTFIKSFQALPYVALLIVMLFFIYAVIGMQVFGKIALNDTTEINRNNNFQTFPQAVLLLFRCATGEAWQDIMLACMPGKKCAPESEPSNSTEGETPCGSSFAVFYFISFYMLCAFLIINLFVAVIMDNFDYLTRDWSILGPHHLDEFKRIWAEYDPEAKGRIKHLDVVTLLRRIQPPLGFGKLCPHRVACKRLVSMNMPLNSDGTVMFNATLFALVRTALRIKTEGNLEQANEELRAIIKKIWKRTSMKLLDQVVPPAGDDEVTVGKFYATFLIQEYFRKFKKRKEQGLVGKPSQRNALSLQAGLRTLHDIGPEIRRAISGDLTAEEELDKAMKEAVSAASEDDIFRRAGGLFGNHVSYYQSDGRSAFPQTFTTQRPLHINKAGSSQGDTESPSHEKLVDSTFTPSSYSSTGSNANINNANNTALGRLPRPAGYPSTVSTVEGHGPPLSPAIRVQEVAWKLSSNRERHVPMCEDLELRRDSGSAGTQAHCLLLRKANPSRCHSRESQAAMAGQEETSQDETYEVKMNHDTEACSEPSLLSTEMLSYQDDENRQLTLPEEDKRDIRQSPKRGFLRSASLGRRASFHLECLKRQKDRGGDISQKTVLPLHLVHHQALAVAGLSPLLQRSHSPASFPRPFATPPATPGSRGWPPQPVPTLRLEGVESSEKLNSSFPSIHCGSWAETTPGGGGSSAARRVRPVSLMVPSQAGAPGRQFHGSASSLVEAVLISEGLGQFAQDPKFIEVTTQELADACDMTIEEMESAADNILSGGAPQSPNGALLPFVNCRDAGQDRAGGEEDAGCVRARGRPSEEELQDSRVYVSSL
Assay: Inhibition of Cav1.2 (unknown origin)
pIC50: −log10 of the molar value.

| recordSmiles | assayTarget | pIC50 |
| --- | --- | --- |
| Cc1c([C@@H]2CN3CCN(C(=O)Cc4ccc(-n5cnnn5)cn4)C[C@H]3CO2)ccc(F)c1C#N | Voltage-dependent L-type calcium channel subunit alpha-1C (Homo sapiens, UniProt Q13936) | < 4.52 |

###

Assay: Oral bioavailability in rhesus monkey at 2 mg/kg, qd
Format: ADME, organism-based, Macaca mulatta
Conditions: in vivo

| recordSmiles | bioavailability [%] |
| --- | --- |
| Cc1c([C@@H]2CN3CCN(C(=O)Cc4ccc(-n5cnnn5)cn4)C[C@H]3CO2)ccc(F)c1C#N | 67 |

###

Molecular target: ATP-sensitive inward rectifier potassium channel 1 (Homo sapiens, UniProt P48048)
Sequence (P48048 whole entry): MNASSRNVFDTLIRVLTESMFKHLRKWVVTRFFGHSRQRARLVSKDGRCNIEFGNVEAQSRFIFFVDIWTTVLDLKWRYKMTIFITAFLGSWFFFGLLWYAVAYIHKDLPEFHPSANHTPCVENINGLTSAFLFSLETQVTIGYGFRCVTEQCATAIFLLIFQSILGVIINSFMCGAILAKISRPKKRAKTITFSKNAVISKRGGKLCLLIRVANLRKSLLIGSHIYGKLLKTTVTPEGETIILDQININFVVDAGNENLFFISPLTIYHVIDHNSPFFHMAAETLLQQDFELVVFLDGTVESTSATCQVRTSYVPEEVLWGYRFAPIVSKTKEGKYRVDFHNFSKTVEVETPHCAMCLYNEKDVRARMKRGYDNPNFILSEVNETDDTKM
Test: Inhibition of human ROMK expressed in CHO cells after 6 mins at -70 mV holding potential by electrophysiology method
Assay type: cell-based
pIC50: −log10 of the molar value.
Entry flag: rule met if pIC50 reaches 7; rule not met if it does not.

| recordSmiles | cat |
| --- | --- |
| O=C1OCCc2cc([C@H]3CN4CCN(C(=O)Cc5ccc(-n6cnnn6)nc5)C[C@H]4CO3)ccc21 | rule not met |
| Cc1c([C@@H]2CN3CCN(C(=O)Cc4cnc(-n5cnnn5)cn4)C[C@H]3CO2)ccc(F)c1C#N | rule met |
| Cc1c([C@@H]2CN3CCN(C(=O)Cc4cnc(-n5cnnn5)nc4)C[C@H]3CO2)ccc(F)c1C#N | rule met |
| Cc1c([C@H]2CN3CCN(C(=O)Cc4cnc(-n5cnnn5)nc4)C[C@H]3CO2)ccc(F)c1C#N | rule met |
| O=C1OCCc2cc([C@@H]3CN4CCN(C(=O)Cc5ccc(-n6cnnn6)nc5)C[C@H]4CO3)ccc21 | rule met |
| Cc1c([C@H]2CN3CCN(C(=O)Cc4ccc(-n5cnnn5)nc4)C[C@H]3CO2)ccc(F)c1C#N | rule met |

###

Test: Half life in Sprague-Dawley rat at 0.5 mg/kg, iv or 1 mg/kg, po
Format: ADME, organism-based
Details: in vivo

| recordSmiles | half-life [min] |
| --- | --- |
| Cc1c([C@@H]2CN3CCN(C(=O)Cc4ccc(-n5cnnn5)nc4)C[C@H]3CO2)ccc2c1COC2=O | 60 |
| Cc1c([C@H]2CN3CCN(C(=O)Cc4ccc(-n5cnnn5)nc4)C[C@H]3CO2)ccc2c1COC2=O | 40.2 |
| Cc1c([C@@H]2CN3CCN(C(=O)Cc4ccc(-n5cnnn5)nc4)C[C@@H]3CO2)ccc2c1COC2=O | 48 |
| O=C1OCCc2cc([C@H]3CN4CCN(C(=O)Cc5ccc(-n6cnnn6)nc5)C[C@@H]4CO3)ccc21 | 45 |

###

Experiment: Oral bioavailability in Beagle dog at 2 mg/kg administered qd
Assay type: ADME, organism-based, Canis lupus familiaris
Conditions: in vivo

| recordSmiles | bioavailability [%] |
| --- | --- |
| Cc1c([C@@H]2CN3CCN(C(=O)Cc4ccc(-n5cnnn5)cn4)C[C@H]3CO2)ccc(F)c1C#N | 100 |

###

Assay: Unbound fraction in rat plasma
Type: ADME, cell-free
attributeMeasured: fraction unbound

| recordSmiles | attributeMeasured | readoutNumber |
| --- | --- | --- |
| Cc1c([C@@H]2CN3CCN(C(=O)Cc4ccc(-n5cnnn5)cn4)C[C@H]3CO2)ccc(F)c1C#N | fraction unbound | 0.48 |

###

Target: Sodium channel protein type 5 subunit alpha (Homo sapiens)
Sequence (Q14524 whole entry): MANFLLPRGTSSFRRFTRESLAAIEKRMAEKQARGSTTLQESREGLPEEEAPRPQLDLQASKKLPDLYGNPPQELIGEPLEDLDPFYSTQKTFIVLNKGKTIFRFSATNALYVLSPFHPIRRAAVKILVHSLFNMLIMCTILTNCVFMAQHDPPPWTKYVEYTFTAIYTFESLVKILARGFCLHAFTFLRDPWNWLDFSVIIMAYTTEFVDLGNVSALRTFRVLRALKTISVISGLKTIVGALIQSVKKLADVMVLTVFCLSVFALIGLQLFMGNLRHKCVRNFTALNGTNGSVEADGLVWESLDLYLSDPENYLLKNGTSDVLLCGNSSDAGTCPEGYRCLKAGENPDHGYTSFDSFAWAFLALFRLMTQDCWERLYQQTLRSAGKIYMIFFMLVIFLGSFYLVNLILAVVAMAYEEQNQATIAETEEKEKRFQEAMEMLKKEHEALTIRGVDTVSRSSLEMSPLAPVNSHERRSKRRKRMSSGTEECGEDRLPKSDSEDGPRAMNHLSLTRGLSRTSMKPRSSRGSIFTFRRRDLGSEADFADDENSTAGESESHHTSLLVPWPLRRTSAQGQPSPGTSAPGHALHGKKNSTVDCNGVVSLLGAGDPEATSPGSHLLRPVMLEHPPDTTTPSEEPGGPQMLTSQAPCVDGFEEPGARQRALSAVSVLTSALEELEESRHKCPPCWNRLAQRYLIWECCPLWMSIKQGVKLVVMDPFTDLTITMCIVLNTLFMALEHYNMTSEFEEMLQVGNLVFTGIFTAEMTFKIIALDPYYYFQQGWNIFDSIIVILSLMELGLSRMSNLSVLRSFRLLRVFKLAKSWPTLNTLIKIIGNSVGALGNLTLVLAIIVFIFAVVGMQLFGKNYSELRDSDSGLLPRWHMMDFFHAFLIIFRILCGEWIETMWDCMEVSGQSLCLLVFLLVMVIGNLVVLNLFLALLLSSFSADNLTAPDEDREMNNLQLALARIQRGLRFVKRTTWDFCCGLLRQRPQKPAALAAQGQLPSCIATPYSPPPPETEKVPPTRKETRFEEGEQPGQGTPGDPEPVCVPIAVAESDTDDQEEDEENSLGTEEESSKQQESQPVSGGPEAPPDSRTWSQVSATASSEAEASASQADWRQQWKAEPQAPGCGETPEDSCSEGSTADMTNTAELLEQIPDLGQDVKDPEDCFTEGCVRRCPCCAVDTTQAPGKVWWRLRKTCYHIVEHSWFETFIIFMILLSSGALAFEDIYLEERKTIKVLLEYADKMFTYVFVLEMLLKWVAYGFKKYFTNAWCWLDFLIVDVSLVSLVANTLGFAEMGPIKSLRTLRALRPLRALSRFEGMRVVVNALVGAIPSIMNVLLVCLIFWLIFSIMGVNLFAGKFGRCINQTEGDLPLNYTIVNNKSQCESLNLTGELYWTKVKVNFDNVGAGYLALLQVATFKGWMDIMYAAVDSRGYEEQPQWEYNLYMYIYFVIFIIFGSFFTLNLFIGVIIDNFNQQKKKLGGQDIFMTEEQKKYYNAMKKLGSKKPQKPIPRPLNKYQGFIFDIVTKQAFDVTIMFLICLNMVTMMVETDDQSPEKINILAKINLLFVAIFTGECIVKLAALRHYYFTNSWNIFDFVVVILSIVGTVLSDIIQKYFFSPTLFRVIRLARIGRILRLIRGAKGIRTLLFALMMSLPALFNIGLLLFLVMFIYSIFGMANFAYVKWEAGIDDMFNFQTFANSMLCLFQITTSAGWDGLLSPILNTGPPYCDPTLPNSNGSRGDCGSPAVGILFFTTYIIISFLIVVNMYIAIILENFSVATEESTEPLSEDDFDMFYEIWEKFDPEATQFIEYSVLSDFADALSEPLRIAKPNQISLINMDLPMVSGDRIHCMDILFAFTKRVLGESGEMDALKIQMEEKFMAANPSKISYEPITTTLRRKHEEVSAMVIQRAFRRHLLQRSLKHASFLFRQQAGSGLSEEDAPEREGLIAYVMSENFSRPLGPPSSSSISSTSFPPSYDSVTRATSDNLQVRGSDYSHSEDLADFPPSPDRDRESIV
Test: Inhibition of Nav1.5 (unknown origin)
pIC50: −log10 of the molar value.
attributeMeasured: pIC50

| recordSmiles | result |
| --- | --- |
| Cc1c([C@@H]2CN3CCN(C(=O)Cc4ccc(-n5cnnn5)cn4)C[C@H]3CO2)ccc(F)c1C#N | < 4.52 |

###

Test: Stability in dog microsomes assessed as compound remaining at 45 mins
Assay type: ADME, Canis lupus familiaris, Microsome
Settings: read-out: Stability

| recordSmiles | remaining at 0.75 h |
| --- | --- |
| Cc1c([C@@H]2CN3CCN(C(=O)Cc4ccc(-n5cnnn5)cn4)C[C@H]3CO2)ccc(F)c1C#N | 82% |

###

Target: UniProtKB P78508
Sequence (P78508 whole entry): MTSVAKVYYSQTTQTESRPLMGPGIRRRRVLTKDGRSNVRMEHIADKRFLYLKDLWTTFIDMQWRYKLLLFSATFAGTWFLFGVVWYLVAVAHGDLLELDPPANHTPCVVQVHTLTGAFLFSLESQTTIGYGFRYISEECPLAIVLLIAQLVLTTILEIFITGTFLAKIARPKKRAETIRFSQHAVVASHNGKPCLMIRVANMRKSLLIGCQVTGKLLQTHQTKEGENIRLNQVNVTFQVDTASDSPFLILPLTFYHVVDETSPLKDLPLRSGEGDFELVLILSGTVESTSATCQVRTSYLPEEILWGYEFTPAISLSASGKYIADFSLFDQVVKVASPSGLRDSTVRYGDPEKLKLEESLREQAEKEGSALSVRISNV
pIC50: −log10 of the molar value.
attributeMeasured: pIC50

| recordSmiles | assayTarget | result |
| --- | --- | --- |
| Cc1c([C@@H]2CN3CCN(C(=O)Cc4ccc(-n5cnnn5)cn4)C[C@H]3CO2)ccc(F)c1C#N | UniProtKB P78508 | < 4.00 |

Source listed as ChEMBL document CHEMBL3868612.
